Biological target: USP28 (USP28-5(1-1077)-TEV-6*His; LifeSensors) (Homo sapiens)
Construct: construct USP28 (USP28-5(1-1077)-TEV-6*His; LifeSensors); TEV cleavage site (C); 6xHis (C); purchased LifeSensors
Sequence (Q96RU2 1-1077): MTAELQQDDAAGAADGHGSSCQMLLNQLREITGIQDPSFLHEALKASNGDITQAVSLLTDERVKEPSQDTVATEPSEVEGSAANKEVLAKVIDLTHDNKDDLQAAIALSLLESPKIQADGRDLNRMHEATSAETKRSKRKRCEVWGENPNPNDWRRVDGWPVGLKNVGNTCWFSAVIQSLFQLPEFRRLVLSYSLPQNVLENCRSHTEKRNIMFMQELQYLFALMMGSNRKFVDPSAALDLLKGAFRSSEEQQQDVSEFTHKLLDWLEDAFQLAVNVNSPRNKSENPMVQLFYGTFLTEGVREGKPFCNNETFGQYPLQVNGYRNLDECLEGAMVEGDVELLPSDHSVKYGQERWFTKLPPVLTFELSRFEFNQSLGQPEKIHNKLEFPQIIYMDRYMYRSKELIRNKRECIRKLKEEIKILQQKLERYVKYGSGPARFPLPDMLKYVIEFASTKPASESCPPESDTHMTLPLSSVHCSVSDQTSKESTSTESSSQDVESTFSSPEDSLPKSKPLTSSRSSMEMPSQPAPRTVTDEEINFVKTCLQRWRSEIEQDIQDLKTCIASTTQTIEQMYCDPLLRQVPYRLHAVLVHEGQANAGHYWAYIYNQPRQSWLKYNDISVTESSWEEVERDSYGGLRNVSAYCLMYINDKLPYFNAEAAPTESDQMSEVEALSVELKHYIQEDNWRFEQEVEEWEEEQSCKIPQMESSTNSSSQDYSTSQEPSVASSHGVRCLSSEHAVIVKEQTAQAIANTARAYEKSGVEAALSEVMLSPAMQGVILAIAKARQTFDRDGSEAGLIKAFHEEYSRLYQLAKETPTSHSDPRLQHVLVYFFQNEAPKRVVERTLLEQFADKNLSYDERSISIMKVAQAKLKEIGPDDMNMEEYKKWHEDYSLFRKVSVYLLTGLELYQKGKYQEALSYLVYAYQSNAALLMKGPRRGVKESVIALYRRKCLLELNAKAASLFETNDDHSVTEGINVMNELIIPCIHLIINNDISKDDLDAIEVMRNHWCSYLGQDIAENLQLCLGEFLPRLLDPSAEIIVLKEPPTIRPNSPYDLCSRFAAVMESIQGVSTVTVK
Test: Ubiquitin-Rhodamine 110 Assay for USP28 Activity, Example A-1(b)
Format: biochemical
Conditions: Ubiquitin-Rhodamine 110 assay, Example A-1(b)
Endpoint Name: USP28 A-1(b) IC50 range

Here are 6 molecules together with their reported answers.
- Molecule: "O=C(N[C@H]1COc2cc(N3CCNCC3)ccc2C1)c1cnc2c(c1)CC[C@H]2O"
  Measured: "+ (>2 μM)"
- Molecule: "O=C(N[C@H]1COc2cc(N3CC4CCC(C3)N4)ccc2C1)c1cnc2c(c1)CCCO2"
  Measured: "+ (>2 μM)"
- Molecule: "O=C(N[C@H]1COc2cc(N3CCNCC3)ccc2C1)c1cnc2c(ccn2Cc2ccccc2)c1"
  Measured: "+++ (0.05-0.2 μM)"
- Molecule: "Cc1ccc2c(N)c(C(=O)N[C@H]3COc4cc(N5C[C@@H](F)[C@@H](N)C5)ccc4C3)sc2n1 (single isomer, unassigned)"
  Measured: "++ (0.2-2 μM)"
- Molecule: "Cc1ccc2c(N)c(C(=O)N[C@H]3COc4cc([C@@H]5CCNC[C@@H]5O)ccc4C3)sc2n1"
  Measured: "+++ (0.05-0.2 μM)"
- Molecule: "Cc1ccc2c(N)c(C(=O)N[C@@H]3COc4cc(N5CCNCC5)cc(F)c4C3)sc2n1"
  Measured: "+ (>2 μM)"

Moving on to the next molecule.
Ask | So what's the measured USP28 A-1(b) IC50 range for this one? CN[C@H]1CCN(c2ccc3c(c2)CC[C@H](NC(=O)c2sc4nc(C)cnc4c2N)C3)C1 (single isomer, unassigned)
Reply | ++ (0.2-2 μM)

Origin of values: patent US11524966B1
